Cited source: patent US10745401B2

Recorded Emax at 10 µM values for a group of compounds are listed next.
- assay-system: human 5-HT1A receptor (Homo sapiens (Human), UniProt P08908)
- Sequence (P08908 whole entry): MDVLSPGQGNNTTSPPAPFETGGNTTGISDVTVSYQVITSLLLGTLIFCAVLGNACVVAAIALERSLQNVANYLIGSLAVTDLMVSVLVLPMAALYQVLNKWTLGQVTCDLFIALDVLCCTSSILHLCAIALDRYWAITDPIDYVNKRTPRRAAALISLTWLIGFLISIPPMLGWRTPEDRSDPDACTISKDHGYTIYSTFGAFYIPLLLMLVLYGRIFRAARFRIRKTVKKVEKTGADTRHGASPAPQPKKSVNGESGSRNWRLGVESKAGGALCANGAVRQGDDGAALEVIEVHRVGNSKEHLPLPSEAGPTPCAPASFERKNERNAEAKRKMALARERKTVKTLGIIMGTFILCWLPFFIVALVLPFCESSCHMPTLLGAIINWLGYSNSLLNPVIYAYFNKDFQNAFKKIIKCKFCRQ
- assay-explanation: Test 2: agonist activity for human 5-HT1A receptor ([35S]GTPγS binding)
- Format: biochemical
- details: agonist activity in the presence of 10 μM of compound, relative to 100 μmol/L 5-HT
Report only the number, with the unit % understood.

Past entries and their recorded results:
Cn1ccc2c1CCCN(CCN1CCN(c3nsc4ccccc34)CC1)C2=O [Example 165] = 44
CC1CN(CCN2CCN(c3noc4ccccc34)CC2)C(=O)c2ccn(C)c21 (centres unmarked) [Example 83] = 61
Cc1nccc2c1C(=O)N(CCN1CCC(c3noc4ccccc34)CC1)CC2 [Example 87] = 76
O=C1c2ncccc2CCN1CCN1CCN(c2nsc3ccccc23)CC1 [Example 7] = 55

In the following, a different compound is considered.
Ask: Endpoint output: Emax at 10 µM of Cn1cc2c(n1)C(=O)N(CCN1CCN(c3nsc4ccccc34)CC1)CC2 [Example 50] . Value?
Reply: 59

---

- assay-explanation: Test 4: metabolic stability test in human hepatic microsome
- Type: in vitro ADME
- details: 0.1 mg/mL microsome, 0.1 μmol/L compound, 37° C., 30 minutes
measured-property: Metabolic stability in human hepatic microsome (mL/min/mg protein)
Quick note: give the figure in mL/min/mg protein, leave out the unit.

Recorded results for 3 compounds are shown here.
Cc1nn(C)c2c1C(=O)N(CCN1CCN(c3nsc4ccccc34)CC1)CC2 [Example 105] = 0.101
O=c1c2cnc(C3CC3)nc2ccn1CCN1CCN(c2nsc3ccccc23)CC1 [Example 182] = 0.726
O=C1c2cnn(C3CC3)c2CCN1CCN1CCN(c2nsc3ccccc23)CC1 [Example 160] = 0.13

Now turn to the next compound.
Ask: Given the compound Cc1ncc2c(=O)n(CCN3CCN(c4nsc5ccccc45)CC3)ccc2n1 [Example 95] , what is its reported Metabolic stability in human hepatic microsome?
Reply: 0.143

---

- assay-system: UniProt:P08908
measured-property: Ki (nM)
Field: numeric (nM). Do not append units.

Use the examples below as a reference point.
COc1ccc2c(C3CCN(CCN4CCc5cccnc5C4=O)CC3)noc2c1 [Example 149] = 184
Cc1cc2ccn(CCN3CCN(c4noc5ccccc45)CC3)c(=O)c2cn1 [Example 113] = 14.4
Cn1cnc2c1C(=O)N(CCN1CCN(c3nsc4ccccc34)CC1)CC2 [Example 56] = 78
CCc1ccc2c(n1)C(=O)N(CCN1CCC(c3noc4ccccc34)CC1)CC2 [Example 185] = 3.26

Ask: Given the entry COc1cc2c(cn1)C(=O)N(CCN1CCC(c3noc4ccccc34)CC1)CC2 [Example 14] , report its measured Ki.
Reply: 0.15

---

- assay-system: human 5-HT1A receptor (Homo sapiens (Human), UniProt P08908)
- assay-explanation: Test 2: agonist activity for human 5-HT1A receptor ([35S]GTPγS binding)
- Type: biochemical
- details: agonist activity in the presence of 10 μM of compound, relative to 100 μmol/L 5-HT
Listed here: items and their measured Emax at 10 µM.
// units = %; emit number, no label

Field: example entries. Status: answers known.
Cc1cc2c(cn1)C(=O)N(CCN1CCC(c3noc4ccccc34)CC1)CC2 = 54
O=C1c2ncccc2CCC1CCN1CCN(c2nsc3ccccc23)CC1 (stereo not drawn) = 57
Cc1n[nH]c2c1C(=O)N(CCN1CCC(c3noc4ccccc34)CC1)CC2 = 40
Cc1c2c(nn1C)CCN(CCN1CCC(c3noc4ccccc34)CC1)C2=O = 71
CCc1nc2c(o1)C(=O)N(CCN1CCN(c3nsc4ccccc34)CC1)CC2 = 67
CC(CN1CCC(c2noc3cc(F)ccc23)CC1)N1CCc2cccnc2C1=O (stereo not drawn) = 23
Cc1nc(C)c2c(=O)n(CCN3CCC(c4noc5ccccc45)CC3)ccc2n1 = 64
CC1CN(CCN2CCN(c3nsc4ccccc34)CC2)C(=O)c2cnn(C)c21 (stereo not drawn) = 78
O=C1c2cccnc2CCN1CCN1CCN(c2nsc3ccccc23)CC1 = 43
O=c1c2cnc(C(F)(F)F)cc2ccn1CCN1CCC(c2noc3ccccc23)CC1 = 59

Ask: I have this compound here, O=c1c2cncnc2ccn1CCN1CCC(c2noc3ccccc23)CC1 , and I need its recorded Emax at 10 µM.
Reply: 31

Ask: What value of measured Emax at 10 µM is listed for Cc1cc2ccn(CCN3CCN(c4noc5ccccc45)CC3)c(=O)c2cn1 ?
Reply: 67

Ask: Find the recorded Emax at 10 µM belonging to Cc1nn(C)c2c1C(=O)N(CCN1CCC(c3noc4ccccc34)CC1)CCC2 and report it.
Reply: 46

Ask: Look up Emax at 10 µM: Cc1noc2ccn(CCN3CCN(c4nsc5ccccc45)CC3)c(=O)c12
Reply: 72

Ask: Requested field: Emax at 10 µM. Item: O=C1c2nc(Cl)ccc2CCN1CCN1CCC(c2noc3ccccc23)CC1
Reply: 55

Ask: Request the reported Emax at 10 µM associated with Cn1cc2c(n1)C(=O)N(CCN1CCN(c3nsc4ccccc34)CC1)CCC2
Reply: 64

Ask: Give its Emax at 10 µM value. Item: O=C1c2ncccc2CCN1CCN1CCN(c2noc3cc(F)ccc23)CC1
Reply: 71

Ask: If you can, please state the reported Emax at 10 µM value of O=C1c2cnc(C(F)(F)F)cc2CCN1CCN1CCN(c2nsc3ccccc23)CC1 .
Reply: 65

Ask: Look at this compound and give its reported Emax at 10 µM. O=c1c2ncccc2ccn1CCN1CCC(c2noc3cc(F)ccc23)CC1
Reply: 32

Ask: Any idea what its Emax at 10 µM is? The compound is Cn1cc2c(n1)C(=O)N(CCN1CCC(c3noc4ccccc34)CC1)CCC2
Reply: 37

Ask: Any idea what its Emax at 10 µM is? The compound is O=C1c2ncccc2CCN1CCN1CCN(c2noc3ccccc23)CC1
Reply: 50

Ask: Item under review: O=C1c2nc(Cl)ccc2CCN1CCN1CCN(c2noc3ccccc23)CC1 . Reported Emax at 10 µM?
Reply: 53

Ask: What does the record list as Emax at 10 µM for Cn1ccc2c1CCN(CCN1CCC(c3noc4ccccc34)CC1)C2=O ?
Reply: 54

Ask: Recorded Emax at 10 µM for Cn1cnc2c1C(=O)N(CCN1CCN(c3nsc4ccccc34)CC1)CCC2 , please?
Reply: 50

Ask: Give its Emax at 10 µM value. Item: Cn1ncc2c1CCCN(CCN1CCN(c3noc4ccccc34)CC1)C2=O
Reply: 63

Ask: Please report the recorded Emax at 10 µM for O=C1c2cn[nH]c2CCN1CCN1CCC(c2noc3ccccc23)CC1 .
Reply: 49

Ask: I would be grateful if you could share the reported Emax at 10 µM for CC(C)n1ncc2c1CCN(CCN1CCC(c3noc4ccccc34)CC1)C2=O .
Reply: 18
